meta.source: patent US7495088B1

# TESTED_ON: T1, DNase II (spleen) (Bos taurus, UniProt P56541 P56541:20-365)
# T1 sequence: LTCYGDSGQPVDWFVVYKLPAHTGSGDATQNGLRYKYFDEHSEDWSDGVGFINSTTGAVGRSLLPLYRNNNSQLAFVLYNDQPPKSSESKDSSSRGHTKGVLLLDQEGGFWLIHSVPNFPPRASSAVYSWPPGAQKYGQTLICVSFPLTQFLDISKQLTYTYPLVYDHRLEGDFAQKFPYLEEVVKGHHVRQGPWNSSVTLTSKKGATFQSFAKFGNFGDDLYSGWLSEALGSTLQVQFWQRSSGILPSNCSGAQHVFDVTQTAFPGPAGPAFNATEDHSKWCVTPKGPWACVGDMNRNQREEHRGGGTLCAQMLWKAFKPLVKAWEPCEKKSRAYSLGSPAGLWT
# ASSAY_DETAILS: cleavage_in_vitro; pH 4.6, 25 C
# REPORTED_CONDITIONS: tags: Bethesda Research Laboratories
TEST_READOUT: activity

Here's what some known entries look like.
{"columns": ["BINDER", "TEST_READOUT", "RECORDED_MEASUREMENT"],
 "data": [
  ["TGACTTAGCTGCAT (ssDNA, 3' methylphosphonate linkage at A3,A7,A13) [14-A-3]", "activity", "> 5 relative half-life"],
  ["TGACTTAGCTGCAT (ssDNA, 3' methylphosphonate linkage at positions 2,4,6,8,10,12) [14-Me6a-3]", "activity", "> 5 relative half-life"],
  ["TGACTTAGCTGCAT (ssDNA, 3' methylphosphonate linkage at C4,C9,C12) [14-C-3]", "activity", "2 relative half-life"],
  ["TGACTTAGCTGCAT (ssDNA, 3' methylphosphonate linkage at positions 2,4,6,9,11,13) [14-Me6b-3]", "activity", "> 5 relative half-life"]
]}

// returns reported activity for input TGACTTAGCTGCAT (ssDNA, 3' methylphosphonate linkage at positions 2,4,6,10,12) [14-Me5a-3]
> 5 relative half-life

Follow-up entry: TGACTTAGCTGCAT (ssDNA, 3' methylphosphonate linkage at positions 2,4,6,8,13) [14-Me5b-3]
> 5 relative half-life
